Origin of the recorded values: the supplement of paper PMC13380429

Test system: Caco-2
ASSAY_COMMENT: cell viability relative to DMSO; higher = less toxic
CONDITION_DESCRIPTION: 72 h; 1 nM
ENDPOINT_LABEL: cell viability (%)

- MOLECULE: "COC(=O)C(Cc1ccc(OCCn2c(=O)sc3cc(C(=O)c4ccccc4)ccc32)cc1)C(=O)OC"
  TEST_RESULT: 100
- MOLECULE: "Nc1nnc(Sc2ncc([N+](=O)[O-])s2)s1"
  TEST_RESULT: 105
- MOLECULE: "CCOC(=O)N1c2ccc(C(F)(F)F)cc2[C@@H](N(Cc2cc(C(F)(F)F)cc(C(F)(F)F)c2)C(=O)OC)C[C@H]1CC"
  TEST_RESULT: 108
- MOLECULE: "CCn1c2ccccc2c2cc(CNC)ccc21"
  TEST_RESULT: 102
- MOLECULE: "CC(=O)/N=c1/sc(S(N)(=O)=O)nn1C [methazolamide]"
  TEST_RESULT: 110
- MOLECULE: "CCN1C[C@]2(COC(=O)c3ccccc3N3C(=O)C[C@H](C)C3=O)CC[C@H](OC)[C@@]34[C@@H]5C[C@H]6[C@H](OC)[C@@H]5[C@](O)(C[C@@H]6OC)[C@](O)([C@@H](OC)[C@H]23)[C@@H]14"
  TEST_RESULT: 108
- MOLECULE: "Cl/C(=C\\n1cncn1)c1ccc(Cl)cc1Cl"
  TEST_RESULT: 91.1
- MOLECULE: "CN(C)[C@@H]1C(O)=C(C(N)=O)C(=O)[C@@]2(O)C(O)=C3C(=O)c4c(O)ccc(Cl)c4[C@@H](O)[C@H]3C[C@@H]12"
  TEST_RESULT: 99.9
- MOLECULE: "COc1cccc(-n2nc(C(=O)O)cc2-c2ccc(C3CCCCC3)c(Cl)c2)c1"
  TEST_RESULT: 87.4
- MOLECULE: "Nc1nc2c(cnn2CCc2ccccc2)c2nc(-c3ccco3)nn12"
  TEST_RESULT: 96.7
- MOLECULE: "O=C(NO)c1ccc(O)c(O)c1"
  TEST_RESULT: 101
- MOLECULE: "Nc1nc(Nc2ccccc2)nc2c1ncn2[C@@H]1O[C@H](CO)[C@@H](O)[C@H]1O"
  TEST_RESULT: 98.9
- MOLECULE: "COC(=O)C1=C(C)NC(C)=C(C(=O)OC)C1c1ccccc1[N+](=O)[O-]"
  TEST_RESULT: 112
- MOLECULE: "C[C@H]1CN(C[C@H](Cc2ccccc2)C(=O)NCC(=O)O)CC[C@@]1(C)c1cccc(O)c1"
  TEST_RESULT: 102
- MOLECULE: "CN1CCCC(n2nc(Cc3ccc(Cl)cc3)c3ccccc3c2=O)CC1 (configuration not stated)"
  TEST_RESULT: 95.2
- MOLECULE: "O=C1OCCN1/N=C/c1ccc([N+](=O)[O-])o1"
  TEST_RESULT: 101
- MOLECULE: "O=C1C=CC(=O)C2=C1C1c3ccccc3C2c2ccccc21"
  TEST_RESULT: 97.5
